Biological target: Glucocorticoid Receptors (Rattus norvegicus, UniProt P06536)
Construct: from tissue; host or cells: rat brain cytosol
Sequence (P06536 1-795): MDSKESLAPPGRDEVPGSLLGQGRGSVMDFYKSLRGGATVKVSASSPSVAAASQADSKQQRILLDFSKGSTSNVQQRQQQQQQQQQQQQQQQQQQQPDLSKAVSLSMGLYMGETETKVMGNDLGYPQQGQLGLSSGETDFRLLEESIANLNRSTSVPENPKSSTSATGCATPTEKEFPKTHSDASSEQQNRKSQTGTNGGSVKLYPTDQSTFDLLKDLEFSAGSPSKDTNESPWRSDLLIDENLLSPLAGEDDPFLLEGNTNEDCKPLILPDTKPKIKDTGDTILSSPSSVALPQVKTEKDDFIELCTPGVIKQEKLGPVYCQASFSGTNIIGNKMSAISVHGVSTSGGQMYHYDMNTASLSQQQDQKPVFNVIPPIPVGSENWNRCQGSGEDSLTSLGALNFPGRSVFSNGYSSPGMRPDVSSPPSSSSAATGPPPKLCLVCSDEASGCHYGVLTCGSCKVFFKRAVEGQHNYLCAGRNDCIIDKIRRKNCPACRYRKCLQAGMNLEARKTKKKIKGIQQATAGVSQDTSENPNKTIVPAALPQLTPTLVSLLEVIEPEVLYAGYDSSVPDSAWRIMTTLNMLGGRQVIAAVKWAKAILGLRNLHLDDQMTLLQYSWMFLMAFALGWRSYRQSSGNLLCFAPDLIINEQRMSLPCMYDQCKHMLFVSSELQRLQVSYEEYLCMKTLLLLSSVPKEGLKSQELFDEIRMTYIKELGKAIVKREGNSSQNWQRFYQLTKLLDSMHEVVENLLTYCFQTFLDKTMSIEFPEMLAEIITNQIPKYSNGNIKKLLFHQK
Experiment: Inhibition of 3H-dexamethasone binding, brain cytosol
Design: species or system rats; dose or concentration left out as unconfirmed
Conditions: read-out: % of Inhibition
Tag: 1 if measured inhibition is not below 3%, -1 if it is.

State whether the measured inhibition reaches 3%, counting equality as reaching it, for C[C@]12CC[C@@H](O)C[C@H]1CC[C@@H]1[C@@H]2CC[C@]2(C)[C@@H](C(=O)CO)CC[C@@H]12
1

Dear colleague, could you confirm whether CC(C)(O)[C@H]1CC[C@H]2[C@@H]3CC[C@H]4C[C@H](O)CC[C@]4(C)[C@H]3CC[C@]12C has inhibition at or above 3%?
-1

I'd appreciate it if you could say whether C[C@]12CC[C@@H](O)C[C@@H]1CC[C@@H]1[C@@H]2CC[C@]2(C)[C@@H](C(=O)CO)CC[C@@H]12 [3α,21-dihydroxy-5α-pregnan-20-one] has inhibition at least equal to 3%.
1

Hi team, for CC(=O)[C@H]1CC[C@H]2[C@@H]3CC[C@H]4C[C@](C)(O)CC[C@]4(C)[C@H]3CC[C@]12C [3α-hydroxy-3β-methyl-5α-pregnan-20-one] , is the recorded inhibition at or above 3%?
-1

Quick check, inhibition >= 3%? CC(=O)[C@H]1CC[C@H]2[C@@H]3CC[C@H]4C[C@H](O)CC[C@]4(C)[C@H]3CC[C@]12C [3α-Hydroxy-5α-pregnan-20-one, 3α-hydroxy-5α-pregnan-20-one]
1

====

Could you please report measured log10(IC50) for the items listed next?
Target: GR complex
Test: [35S]TBPS binding assay (inhibition of [35S]TBPS binding, cerebral cortex P2 homogenate)
Parameters: species or system rat
Conditions: 2 nM [35S]TBPS, rat cerebral cortex P2 homogenate
Kindly note that the scale is log10 and the underlying IC50 is in nM.

Given the molecule C[C@]12CC[C@H]3[C@@H](CC[C@@H]4C[C@@](O)(C#CCCO)CC[C@@H]43)[C@@H]1CC[C@@H]2C(=O)Cn1ccnc1 and test system GR complex, the measured log10(IC50) is 1.99

Result for CC(=O)[C@H]1CC[C@H]2[C@@H]3CC[C@@H]4C[C@@](O)(C#CCCCC(N)=O)CC[C@]4(C)[C@H]3CC[C@]12C , tested on GR complex, log10(IC50): 3.49

For the molecule CCOC(=O)c1ccc(C#CC2(O)CCC3(C)C(CCC4C3CCC3(C)C(C(C)=O)CCC43)C2)cc1 (stereo not shown) , the measured log10(IC50) on GR complex was 0.85

Kindly note: GR complex, C[C@]12CC[C@@H](O)C[C@H]1CC[C@@H]1[C@@H]2CC[C@]2(C)[C@@H](C(=O)Cn3nccn3)CC[C@@H]12 , log10(IC50) value reported: 1.75

log10(IC50) on GR complex for CC(=O)C#C[C@@]1(O)CC[C@@]2(C)[C@@H](CC[C@@H]3[C@@H]2CC[C@]2(C)[C@@H](C(C)=O)CC[C@@H]32)C1 is 3.81

Let me check: C[C@]12CC[C@@H](O)C[C@H]1CC[C@@H]1[C@@H]2CC[C@]2(C)[C@@H](C(=O)Cn3cnnn3)CC[C@@H]12 , system GR complex, measured log10(IC50) is 2.36

Tested on GR complex: CC12CCC(O)(C#CCO)CC1CCC1C2CCC2(C)C(C(=O)Cn3ccnn3)CCC12 (stereo not shown) . Observed log10(IC50): 3.04
